Catalogue of Her2 level values
- TEST_TARGET: Receptor tyrosine-protein kinase erbB-2 (Homo sapiens) (UniProt P04626)
- Sequence (P04626 whole entry, looked up): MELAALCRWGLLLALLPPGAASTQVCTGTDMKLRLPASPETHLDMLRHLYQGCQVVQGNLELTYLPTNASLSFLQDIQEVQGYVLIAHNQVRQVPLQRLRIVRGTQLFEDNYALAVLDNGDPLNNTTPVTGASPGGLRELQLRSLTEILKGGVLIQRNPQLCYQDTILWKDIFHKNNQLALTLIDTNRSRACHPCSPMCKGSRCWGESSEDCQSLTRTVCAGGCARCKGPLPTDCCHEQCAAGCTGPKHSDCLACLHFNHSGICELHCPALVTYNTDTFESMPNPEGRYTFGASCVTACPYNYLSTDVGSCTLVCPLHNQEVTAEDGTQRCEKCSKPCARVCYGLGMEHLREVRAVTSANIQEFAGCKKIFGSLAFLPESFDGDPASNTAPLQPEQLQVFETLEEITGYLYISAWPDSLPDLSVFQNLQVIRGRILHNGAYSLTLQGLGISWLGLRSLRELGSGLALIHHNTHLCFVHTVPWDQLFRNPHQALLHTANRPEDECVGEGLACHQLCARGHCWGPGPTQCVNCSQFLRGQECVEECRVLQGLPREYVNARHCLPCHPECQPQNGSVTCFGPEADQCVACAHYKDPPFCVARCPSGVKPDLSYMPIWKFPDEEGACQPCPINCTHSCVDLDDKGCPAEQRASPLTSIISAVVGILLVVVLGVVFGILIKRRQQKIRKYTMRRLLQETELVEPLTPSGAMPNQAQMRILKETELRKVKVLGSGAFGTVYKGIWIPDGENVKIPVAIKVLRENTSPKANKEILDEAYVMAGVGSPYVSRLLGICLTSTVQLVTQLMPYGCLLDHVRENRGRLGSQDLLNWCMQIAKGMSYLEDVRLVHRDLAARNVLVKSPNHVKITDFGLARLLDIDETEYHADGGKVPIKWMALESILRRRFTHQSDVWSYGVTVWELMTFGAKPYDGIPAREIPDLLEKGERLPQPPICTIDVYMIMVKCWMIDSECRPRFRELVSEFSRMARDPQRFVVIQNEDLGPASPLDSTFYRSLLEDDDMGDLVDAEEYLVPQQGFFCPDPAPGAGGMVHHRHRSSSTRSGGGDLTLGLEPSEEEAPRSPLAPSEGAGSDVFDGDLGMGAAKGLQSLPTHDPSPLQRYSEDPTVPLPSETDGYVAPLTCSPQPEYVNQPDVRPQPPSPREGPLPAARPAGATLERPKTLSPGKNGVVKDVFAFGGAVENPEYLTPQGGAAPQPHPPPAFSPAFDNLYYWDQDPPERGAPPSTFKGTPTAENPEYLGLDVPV
- TEST_PROTOCOL: reducers of endogenous Her2 protein level, primary screen, SKBR3 breast tumor cells, AlphaScreen, ATP viability (AID 461);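 further: lower value means less Her2 protein in the cells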
- STATED_CONDITIONS: 18-24 h, at 10 µM, stronger effect = lower value

{"columns": ["COMPOUND", "Her2 level [%]"],
 "data": [
  ["COc1ccc(-c2nc(C#N)c(NCCCN(C)C)o2)cc1OC", 111],
  ["COc1ccc(-c2noc(-c3cc(Cl)ccc3Cl)n2)cc1OC", 78],
  ["Cc1ccc(CNC(=O)CSc2n[nH]c(N)n2)cc1", 99.5],
  ["COc1ccccc1Nc1ccc(C(=O)NC2CCCCC2)cn1", 96],
  ["N#CCSc1nc2c(c(C3CC=CCC3)c1C#N)CCC2 (stereo unspecified)", 81.5],
  ["Cc1ccc(NC(=O)C2CCCN2S(=O)(=O)c2cccc3cccnc23)cc1F (stereo unspecified)", 97.5]
]}

###

- TEST_PROTOCOL: SK-BR-3 cell growth inhibitors, pilot screen, 24 h, human (AID 572);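 further: compound exposure lasted between 18 and 24 h rather than exactly 24 h; 100% = carrier-treated control wells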
- STATED_CONDITIONS: SK-BR-3 viability, CellTiter-Glo luminescence, at 10 µM, stronger effect = lower value
Lab note: anything with viability below 90% is marked y; values at 90% or higher are marked n.

{"columns": ["COMPOUND", "CATEGORY_LABEL"],
 "data": [
  ["Cc1c(NC2=NC3(CCCCC3)Cc3ccccc32)c(=O)n(-c2ccccc2)n1C", "y"],
  ["CCOC(=O)C1=C(c2ccccc2)Nc2nc(C)nn2C1c1cccc(OC)c1OC (stereo not given)", "n"],
  ["COc1ccc(-c2noc(CSc3nc(N)c(-c4ccccc4)c(=O)[nH]3)n2)cc1OC", "n"],
  ["CC(Oc1ccc(Cl)cc1Cl)c1nc(-c2ccc(NC(=O)c3cccnc3)cc2)no1 (stereo not given)", "n"],
  ["COCCn1nnnc1C(c1cc2cc(OC)ccc2[nH]c1=O)N1CCC(Cc2ccccc2)CC1 (stereo not given)", "n"]
]}

###

- TEST_TARGET: Receptor tyrosine-protein kinase erbB-2 (Homo sapiens)
- TEST_PROTOCOL: reducers of endogenous Her2 protein level, primary screen, SKBR3 breast tumor cells, AlphaScreen, ATP viability (AID 461);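 further: lower value means less Her2 protein in the cells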
- STATED_CONDITIONS: 18-24 h, at 10 µM, stronger effect = lower value
PROPERTY_MEASURED: Her2 level (%)

{"columns": ["MOLECULE", "TEST_TARGET", "MEASURED_VALUE"],
 "data": [
  ["Cc1ccc(NC(=O)c2ccccc2O)cc1", "Receptor tyrosine-protein kinase erbB-2 (Homo sapiens)", 87.5],
  ["CC(=O)NC(Cc1ccccc1)C(=O)NC1CCN(C(=O)c2cnccn2)CC1 (configuration not stated)", "Receptor tyrosine-protein kinase erbB-2 (Homo sapiens)", 88],
  ["COC(=O)c1ccccc1S(=O)(=O)N(CCCN1CCOCC1)Cc1cccs1", "Receptor tyrosine-protein kinase erbB-2 (Homo sapiens)", 110],
  ["CCCCCCn1c(SCCCC)nc2c1c(=O)[nH]c(=O)n2C", "Receptor tyrosine-protein kinase erbB-2 (Homo sapiens)", 99],
  ["O=C(O)c1cc(Cl)c(Cl)cc1C(=O)N1CCCC1", "Receptor tyrosine-protein kinase erbB-2 (Homo sapiens)", 100],
  ["COc1ccc(-n2c(SCCC(=O)O)nnc2-c2ccncc2)cc1", "Receptor tyrosine-protein kinase erbB-2 (Homo sapiens)", 96],
  ["Cn1c(=O)cc(OCC(=O)NCCCN2CCN(c3cccc(Cl)c3)CC2)c2ccccc21", "Receptor tyrosine-protein kinase erbB-2 (Homo sapiens)", 74.5],
  ["CCOC(=O)CSc1ncnc2c1cnn2-c1ccc(C)cc1", "Receptor tyrosine-protein kinase erbB-2 (Homo sapiens)", 88.5],
  ["CCC(c1nnnn1CCOC)N(Cc1ccc(C)cc1)Cc1cc2cc(OC)ccc2[nH]c1=O (configuration not stated)", "Receptor tyrosine-protein kinase erbB-2 (Homo sapiens)", 89],
  ["COc1cccc(-n2ccnc2SCC(=O)N2CCc3ccccc32)c1", "Receptor tyrosine-protein kinase erbB-2 (Homo sapiens)", 102],
  ["CCOC(=O)CNC(=O)CSc1ncnc2c1cnn2-c1ccccc1", "Receptor tyrosine-protein kinase erbB-2 (Homo sapiens)", 94],
  ["COc1ccc(N2CCN(C(=O)C(OC(C)=O)c3ccccc3)CC2)cc1 (configuration not stated)", "Receptor tyrosine-protein kinase erbB-2 (Homo sapiens)", 99],
  ["O=C1CN(Cc2ccccc2)C(=NCc2ccco2)S1", "Receptor tyrosine-protein kinase erbB-2 (Homo sapiens)", 74],
  ["COC(=O)C1=C(C)NC(C)=C(C(=O)OC)C1c1cc2cc(C)ccc2[nH]c1=O", "Receptor tyrosine-protein kinase erbB-2 (Homo sapiens)", 66],
  ["COCCn1c(C23CC4CC(CC(C4)C2)C3)n[nH]c1=S", "Receptor tyrosine-protein kinase erbB-2 (Homo sapiens)", 94.5],
  ["CC(=O)c1nnn(-c2nc(N3CCCC3)nc(N(c3ccccc3)c3ccccc3)n2)c1C", "Receptor tyrosine-protein kinase erbB-2 (Homo sapiens)", 76],
  ["COc1cc2c(cc1OC)C(C)N(C(=O)c1cc3n(n1)C(C(F)(F)F)CC(c1ccco1)N3)CC2 (configuration not stated)", "Receptor tyrosine-protein kinase erbB-2 (Homo sapiens)", 68.5],
  ["CCCCCOC(=O)C1=C(C)N(C)C(=O)NC1c1cc(Br)c(O)c(OC)c1 (configuration not stated)", "Receptor tyrosine-protein kinase erbB-2 (Homo sapiens)", 106],
  ["CC1(C)CNC(=O)c2sc(N3CCOCC3)nc2C1", "Receptor tyrosine-protein kinase erbB-2 (Homo sapiens)", 87],
  ["CN(CC(=O)Nc1ccc2c(c1)OCCO2)S(=O)(=O)c1ccc(Br)s1", "Receptor tyrosine-protein kinase erbB-2 (Homo sapiens)", 94.5],
  ["Cc1cccc(N2CCN(C(=O)CCn3c(=S)[nH]c4cc5c(cc4c3=O)OCO5)CC2C)c1 (configuration not stated)", "Receptor tyrosine-protein kinase erbB-2 (Homo sapiens)", 85.5],
  ["Cc1nc(N2CCOCC2)[nH]c(=O)c1CCC(C)C", "Receptor tyrosine-protein kinase erbB-2 (Homo sapiens)", 82]
]}

###

This section presents compounds with their documented viability values.
- TEST_PROTOCOL: HUVEC growth inhibition – cell-based, human, primary screen (AID 575);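 further: 100% = median of untreated cell wells with 0.1% DMSO on each plate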
- STATED_CONDITIONS: HUVEC proliferation, CellTiter-Glo luminescence, 72 h; at 10 µM; stronger effect = lower value

{"columns": ["COMPOUND", "viability / %"],
 "data": [
  ["Cn1c(SCC(=O)N2CCN(c3cccc(Cl)c3)CC2)nnc1-c1ccncc1", 49.4],
  ["CC(C)=CC(=O)Nc1ccc(Br)cc1", 107],
  ["Cc1cnc(C(=O)OCC(=O)Nc2ccc(Cl)cc2Cl)cn1", 90.5],
  ["COc1ccccc1S(=O)(=O)n1cc(Cc2ccccc2)c(N)n1", 96.4],
  ["O=C(Nc1cc(Cl)ccc1Cl)c1noc2c1CCCC2", 63.5],
  ["O=C(C1CCCN(S(=O)(=O)c2cccs2)C1)N1CCc2ccccc2C1 (stereo unspecified)", 83.4]
]}

###

- TEST_PROTOCOL: 384-well plate pilot, post-Golgi transport modulator project, inhibition of yeast transport mutant growth (AID 636)
- STATED_CONDITIONS: absorbance 615 nm, about 18 h, stronger effect = higher value
Each item that follows carries a reported inhibition.

{"columns": ["MOLECULE", "inhibition [%]"],
 "data": [
  ["Cn1c2c(c(=O)n(C)c1=O)CN(CCCN1CCOCC1)CN2", -5.26],
  ["O=C(CSc1nc2ncccc2[nH]1)Nc1ccc2c(c1)OCCO2", -2.86],
  ["CCN(C1CCCCC1)S(=O)(=O)c1ccc(OC)c(C)c1", -7.92],
  ["COc1ccccc1CC1(C)NC(=O)N(CC(=O)Nc2cc(C)on2)C1=O (stereo unspecified)", -5.81],
  ["COc1ccc(CCn2c(NCCCN3CCOCC3)nc3c2c(=O)[nH]c(=O)n3C)cc1", 4.13],
  ["COC(=O)C(C)NC(=O)C12CC3CC(CC(C3)C1)C2 (stereo unspecified)", -1.54]
]}

###

Known viability of a selection of molecules
- TEST_PROTOCOL: reversal of MRP1-mediated doxorubicin resistance, pilot screen, H69AR cells, doxorubicin co-treatment (AID 601)
- STATED_CONDITIONS: H69AR cells + 2 uM doxorubicin, CellTiter-Glo, 72 h; measured here: viability with 2 uM doxorubicin; at 10 µM; stronger effect = lower value

{"columns": ["MOLECULE", "viability"],
 "data": [
  ["O=C(CSc1nnc(-c2ccccc2Cl)n1Cc1ccco1)Nc1ccc2c(c1)OCCO2", "90.5%"],
  ["COCCn1nnnc1CN(CCCN1CCOCC1)Cc1cc2c(C)ccc(C)c2[nH]c1=O", "74.1%"],
  ["Cc1ccc(C2N(c3ccc(Cl)c(Cl)c3)C(=O)C3CCCN32)o1 (stereo not given)", "89.4%"],
  ["CC(=O)c1cccc(NC(=O)N2CCCC2C(=O)NCc2ccc(C)cc2)c1 (stereo not given)", "87.1%"],
  ["CCNC(=O)CC(=O)Nc1ccccc1C(=O)O", "96.9%"],
  ["CCOC(=O)N1CCN(S(=O)(=O)c2cc(Cl)c(OC)cc2Cl)CC1", "91.3%"],
  ["Cc1ccccc1CSCC(=O)c1c(N)n(C)c(=O)n(C)c1=O", "95.6%"],
  ["CCOc1cc(C2C(C(=O)OC(C)C)=C(C)N=C3SCCC(=O)N32)ccc1OC(C)=O (stereo not given)", "89.9%"],
  ["Cc1ccc(CNC(=O)COC(=O)c2c(C)noc2C)cc1", "85.6%"],
  ["CSc1ccc(-c2nc(CSCC(=O)N3CCOCC3)c(C)o2)cc1", "97.1%"],
  ["Cn1c(=O)c2c(-c3ccccc3)n(CCCN3CCOCC3)cc2n(C)c1=O", "71.9%"],
  ["CC(C)Oc1ccc(-c2nn(-c3ccccc3)cc2/C=c2\\sc3ncnn3c2=O)cc1", "89.9%"],
  ["CCOc1ccccc1NC(=O)C1CCCN1C(=O)OCc1ccccc1 (stereo not given)", "85.3%"],
  ["CC(NC(=O)c1ccc(F)cc1)C(c1cccs1)N1CCN(C)CC1 (stereo not given)", "91.7%"],
  ["O=C(O)C1CC=CCC1C(=O)Nc1ccc(S(=O)(=O)N2CCCc3ccccc32)cc1 (stereo not given)", "94.1%"],
  ["O=C(Nc1cccc(C(F)(F)F)c1)c1cccnc1N1CCCC1", "102%"],
  ["O=C(Nc1ccc(N2CCOCC2)cc1)c1cc2ccccc2o1", "82.6%"],
  ["O=C(/C=N/O)Nc1cccnc1", "89.6%"],
  ["CCn1cc(C(=O)O)c(=O)c2cc(F)c(N3CCN(C(=O)Nc4ccccc4)CC3)cc21", "81.1%"],
  ["Cc1ccc(C(C)C)c(OCCn2c(=O)oc3ccccc32)c1", "82.3%"],
  ["Cc1cc2c(cc1C)-c1nnnn1C(C)(C)C2", "87.1%"],
  ["O=C(Nc1cccc(F)c1)c1cccc(S(=O)(=O)N2CCOCC2)c1", "91%"],
  ["CC(C)OC(=O)CSc1nnc(-c2ccc(C(C)(C)C)cc2)n1N", "82.8%"],
  ["COc1cccc(NC(=O)CN2CCN(c3ccccc3F)CC2)c1", "93.1%"],
  ["O=C(NCc1cccs1)c1cc2c(s1)-c1ccccc1OC2", "89.7%"],
  ["Cc1cc(C)c2c(n1)nn1c(N3CCOCC3)cc(C)nc21", "93.4%"],
  ["Cn1nnnc1SCC(=O)N1CCN(c2cccc(Cl)c2)CC1", "77.5%"],
  ["COC(=O)CCCCCNc1ccc(C(=O)OC)cc1N", "85.4%"],
  ["O=C1CC(N2CCN(c3cccc(C(F)(F)F)c3)CC2)C(=O)N1c1ccccc1 (stereo not given)", "90%"],
  ["O=C(NCCC1=CCCCC1)c1cc2c(s1)CS(=O)(=O)C2", "83.8%"],
  ["CCCCCc1c(C)nc(Nc2nc(C)c3cc(OC)ccc3n2)[nH]c1=O", "55.7%"],
  ["Cc1c(Cl)cnc(NC(=O)COC(=O)C(NC(=O)c2ccco2)C(C)C)c1Cl (stereo not given)", "72.5%"],
  ["Cc1[nH]c(=O)[nH]c(=O)c1S(=O)(=O)Nc1ccc(Oc2ccccc2)cc1", "87.5%"],
  ["CCS(=O)(=O)NCCc1cc2c(OC)ccc(OC)c2[nH]c1=O", "86.8%"],
  ["CCN1C(=O)OC2(CCCCC2)C1(C)O (stereo not given)", "94.1%"],
  ["CN(C)S(=O)(=O)c1ccc(S(=O)(=O)Nc2ccc3c(c2)oc2ccccc23)cc1", "76.1%"],
  ["Cc1cccc(C(OC(=O)c2ccco2)C(=O)NCc2ccccc2)n1 (stereo not given)", "88.3%"],
  ["CCOC(=O)C1C(=O)N(C(=O)c2ccc(OC)cc2)CC1c1ccccc1 (stereo not given)", "84.7%"],
  ["CCS(=O)(=O)N1CCCC(c2nc(-c3cccc(OC)c3)no2)C1 (stereo not given)", "92.2%"],
  ["C=CCn1cnc2c(NCc3ccccc3)ncnc21", "100%"],
  ["COc1ccc2c(c1)C(C)=CC(C)(C)N2C(=O)CSc1nnc(-c2ccc(C)cc2)o1", "91.8%"],
  ["CCOc1cc(C2C(C#N)=C(N)OC(C)=C2C(C)=O)cc(Br)c1O (stereo not given)", "84.2%"],
  ["O=C(Nc1ccccc1N1CCN(C(=O)c2ccc(Cl)cc2)CC1)c1cc2ccccc2o1", "62.6%"],
  ["COc1ccc(Cn2nnnc2C(c2cc3cc(C)cc(C)c3[nH]c2=O)N2CCOCC2)cc1 (stereo not given)", "87.4%"],
  ["Cc1ccc(CN2C(=O)CCC2C(=O)NC2CCCC2)cc1 (stereo not given)", "95.1%"]
]}
